# assay.summary: qHTS assay to identify small molecule antagonists of the thyroid receptor (TR) signaling pathway - cell viability counter screen (AID 743064); also: nearly all actives have a fitted effect of over 50% in size
# condition.context: GH3.TRE-Luc viability, CellTiter-Fluor, 24 h; series mostly up to 70.3 µM
Records with an inconclusive call do not appear. Active and inactive are the calls of the source. Calls follow the shape of the dose curve; as a rule, active = well fitted cell-killing curve with a large enough effect in the repeat runs; inconclusive = weak or mixed curves, or effect the other way; inactive = no such curve, though single readings can be large or run the other way.
Just give me one of these, please: true (active), false (inactive)

input: Dear all, I need the recorded test outcome for "CCCCCCC(C)(C)C(=O)O" , thank you.
output: false

input: Dear all, I need the recorded test outcome for "CCC=CC#N" , thank you.
output: false

input: Dear all, I need the recorded test outcome for CN1CCCC(CC2c3ccccc3Sc3ccccc32)C1 (stereo not given) , thank you.
output: true

input: Dear all, I need the recorded test outcome for "OCCN1CCN(CCCN2c3ccccc3Sc3ccc(Cl)cc32)CC1" , thank you.
output: true

input: Dear all, I need the recorded test outcome for CCCCC(CC)COP(=O)(O)O (stereo not given) , thank you.
output: false

input: Dear all, I need the recorded test outcome for "CCCCCC[C@@H](O)C/C=C\CCCCCCCC(=O)O" , thank you.
output: false

input: Dear all, I need the recorded test outcome for "CC(=O)Oc1ccc([N+](=O)[O-])cc1CCl" , thank you.
output: true

input: Dear all, I need the recorded test outcome for CC1CC(OC(=O)C(O)c2ccccc2)CC(C)(C)N1C (stereo not given) , thank you.
output: false

input: Dear all, I need the recorded test outcome for "CC1(C)[C@H](C(=O)O)N2C(=O)C[C@H]2S1(=O)=O" , thank you.
output: false

input: Dear all, I need the recorded test outcome for "O=c1cc(-c2ccccc2)oc2ccc3ccccc3c12" , thank you.
output: false

input: Dear all, I need the recorded test outcome for "Brc1cc(Br)c(Oc2cc(Br)c(Br)cc2Br)cc1Br" , thank you.
output: false

input: Dear all, I need the recorded test outcome for "O=C(O)C[C@H](NC(=O)OCc1ccccc1)C(=O)O" , thank you.
output: false

input: Dear all, I need the recorded test outcome for "CC(=O)OCC[N+](C)(C)C" , thank you.
output: false

input: Dear all, I need the recorded test outcome for "Clc1ccc(Nc2nnc(Cc3ccncc3)c3ccccc23)cc1" , thank you.
output: false

input: Dear all, I need the recorded test outcome for "CC(=O)NC1(c2cccc(F)c2)CCN(CC[C@@]2(c3ccc(Cl)c(Cl)c3)CN(c3ccccc3)C(=O)CO2)CC1" , thank you.
output: true

input: Dear all, I need the recorded test outcome for "CCC(=O)OC" , thank you.
output: false

input: Dear all, I need the recorded test outcome for "CC(C)=CCC1C(=O)N(c2ccccc2)N(c2ccccc2)C1=O" , thank you.
output: false

input: Dear all, I need the recorded test outcome for c1cc(N(CC2CO2)CC2CO2)ccc1Cc1ccc(N(CC2CO2)CC2CO2)cc1 (stereo not given) , thank you.
output: true

input: Dear all, I need the recorded test outcome for "C1C[C@@H]2[C@H]3CC[C@H](C3)[C@@H]2C1" , thank you.
output: false

input: Dear all, I need the recorded test outcome for Nc1cccc2c1CN(C1CCC(=O)NC1=O)C2=O (stereo not given) , thank you.
output: false

input: Dear all, I need the recorded test outcome for CCC(=O)C1CC(C(C)C)CC=C1C (stereo not given) , thank you.
output: false

input: Dear all, I need the recorded test outcome for "c1ccc(C[n+]2cccc3ccccc32)cc1" , thank you.
output: false

input: Dear all, I need the recorded test outcome for "O=Cc1c2ccccc2c(Cl)c2ccccc12" , thank you.
output: false

input: Dear all, I need the recorded test outcome for "Cc1ccc(Cl)c(Nc2ccccc2C(=O)O)c1Cl" , thank you.
output: false

input: Dear all, I need the recorded test outcome for C=CC(C)(CCC=C(C)C)OC(=O)CC(C)C (stereo not given) , thank you.
output: false

input: Dear all, I need the recorded test outcome for "O=C=Nc1cccc(C(F)(F)F)c1" , thank you.
output: true

input: Dear all, I need the recorded test outcome for "CC(C)=CCC/C(C)=C/CC/C(C)=C/CCC(=O)OC/C=C(\C)CCC=C(C)C" , thank you.
output: false

input: Dear all, I need the recorded test outcome for "CCCC(=O)C(=O)O" , thank you.
output: false

input: Dear all, I need the recorded test outcome for "CO/N=C(/C(=O)N[C@@H]1C(=O)N2C(C(=O)O)=C(COC(N)=O)CS[C@H]12)c1ccco1" , thank you.
output: false

input: Dear all, I need the recorded test outcome for "CC1=C(CC=O)C(C)(C)CCC1" , thank you.
output: false

input: Dear all, I need the recorded test outcome for "Cc1cccc(N(C)C(=S)Oc2ccc3c(c2)CCC3)c1" , thank you.
output: false

input: Dear all, I need the recorded test outcome for "Oc1cc2c(cc1O)[C@H]1c3ccc(O)c(O)c3OC[C@@]1(O)C2" , thank you.
output: true

input: Dear all, I need the recorded test outcome for "CCn1cc(C(=O)O)c(=O)c2cc(F)c(N3CCNCC3)cc21" , thank you.
output: false

input: Dear all, I need the recorded test outcome for "CCCCCCCCCI" , thank you.
output: false

input: Dear all, I need the recorded test outcome for "CCCCCCNC(=O)n1cc(F)c(=O)[nH]c1=O" , thank you.
output: true

input: Dear all, I need the recorded test outcome for "CCCCCCCCN" , thank you.
output: false

input: Dear all, I need the recorded test outcome for "CC(=O)[C@H]1[C@H](C#N)C[C@H]2[C@@H]3CC=C4C[C@@H](O)CC[C@]4(C)[C@H]3CC[C@@]21C" , thank you.
output: false

input: Dear all, I need the recorded test outcome for "C=CC(=O)[O-].C=CC(=O)[O-].[Zn+2]" , thank you.
output: false

input: Dear all, I need the recorded test outcome for "CCCCCCCCCCC(=O)O" , thank you.
output: false

input: Dear all, I need the recorded test outcome for "CCCCCCCC/C=C\CCCCCCCCCCCC(=O)O" , thank you.
output: false

input: Dear all, I need the recorded test outcome for "C[C@@H](O)[C@H]1C(=O)N2C(C(=O)O)=C([C@H]3CCCO3)S[C@H]12" , thank you.
output: false

input: Dear all, I need the recorded test outcome for "CCCCCCCC/C=C\CCCCCCCCO" , thank you.
output: false

input: Dear all, I need the recorded test outcome for "CC1=C(Br)C(=O)C(Br)=C/C1=C(/c1ccccc1S(=O)(=O)O)c1cc(Br)c(O)c(Br)c1C" , thank you.
output: true

input: Dear all, I need the recorded test outcome for "CC=C(Cl)Cl" , thank you.
output: false

input: Dear all, I need the recorded test outcome for CC1CC(C)C(=O)C1=O (stereo not given) , thank you.
output: false

input: Dear all, I need the recorded test outcome for "O=C(O)CCC(=O)C(=O)O" , thank you.
output: false

input: Dear all, I need the recorded test outcome for "Cc1cscn1" , thank you.
output: false

input: Dear all, I need the recorded test outcome for "O[C@@H]1CO[C@H]2[C@@H]1OC[C@@H]2O" , thank you.
output: false

input: Dear all, I need the recorded test outcome for "CCCCCCCCOc1ccc(C(=O)O)cc1" , thank you.
output: false

input: Dear all, I need the recorded test outcome for "O=C(CCc1ccc(O)cc1)c1c(O)cc(O)cc1O" , thank you.
output: true
